Entries and their inhibition at 1 µM
Molecular target: human recombinant adrenergic α1D receptor (Homo sapiens)
Construct: expressed in transfected cells; host or cells: HEK-293 cells
Sequence (P25100 1-572): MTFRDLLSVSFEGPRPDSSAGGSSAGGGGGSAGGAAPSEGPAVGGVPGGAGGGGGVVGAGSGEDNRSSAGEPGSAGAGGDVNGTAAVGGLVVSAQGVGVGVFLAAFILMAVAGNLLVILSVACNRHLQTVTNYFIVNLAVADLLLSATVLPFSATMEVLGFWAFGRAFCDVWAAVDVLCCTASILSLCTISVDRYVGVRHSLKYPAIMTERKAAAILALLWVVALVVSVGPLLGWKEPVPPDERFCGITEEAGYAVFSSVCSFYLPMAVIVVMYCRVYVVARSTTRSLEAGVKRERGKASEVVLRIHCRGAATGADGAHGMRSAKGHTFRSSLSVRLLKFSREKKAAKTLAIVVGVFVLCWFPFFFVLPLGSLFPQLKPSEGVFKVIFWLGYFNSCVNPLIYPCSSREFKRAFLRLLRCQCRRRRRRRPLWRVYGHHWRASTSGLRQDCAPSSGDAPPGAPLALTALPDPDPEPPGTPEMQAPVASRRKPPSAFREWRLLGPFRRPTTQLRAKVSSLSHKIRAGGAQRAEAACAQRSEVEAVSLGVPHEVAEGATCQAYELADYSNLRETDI
Assay: Adrenergic α1D radioligand binding ([3H]Prozosin)
Conditions: compound concentration 1 μM; read-out: Percentage inhibition of ligand binding to Adrenergic α1D receptor
Procedure: To evaluate in radioligand binding assays the activity of compounds of the invention, human recombinant adrenergic a1D receptor expressed in human embryonic kidney (HEK-293) cells (Kenny, B. A. et al. Br. J. Pharmacol. 115(6):981, 1995) in a 50 mM Tris-HCl buffer, pH 7.4, was used. Compounds of invention were incubated with 0.6 nM [^3H]Prozosin for 60 minutes at 25° C. […] Receptor proteins were filtered and washed, the filters were then counted to determine [^3H]Prozosin specifically bound. […]
Hi! Could you send only the number? It should be in %, unit omitted.

Study these solved cases before continuing.
>>> value_reported("Cc1ccc2c(c1)c1c(n2/C=C/c2ccccc2)CN(C)CC1 [Compound 92]")
97
>>> value_reported("C/C(=C\\n1c2c(c3cc(C)ccc31)CCN(C)C2)c1ccc(F)cc1 [Compound 91]")
73
>>> value_reported("C/C(=C\\n1c2c(c3cc(C)ccc31)CCN(C)C2C)c1ccccc1F (stereo not shown) [Compound 166]")
69

**Query** What value of measured inhibition at 1 µM is listed for C/C(=C\n1c2c(c3cc(Cl)ccc31)CCN(C)C2)c1ccc(F)cc1 [Compound 90] ?
**Result** 62

* * *

Entries and their inhibition at 1 µM
biological target: human recombinant dopamine D2L receptor (Homo sapiens, UniProt P14416); construct: expressed in transfected cells; host or cells: CHO cells; experiment: Dopamine D2L radioligand binding ([3H]Spiperone); conditions: 2 h, 1 μM ligand conc.; read-out: Percent Inhibition of ligand binding Dopamine (1 μM ligand conc.) D2L
Sequence (P14416 whole entry): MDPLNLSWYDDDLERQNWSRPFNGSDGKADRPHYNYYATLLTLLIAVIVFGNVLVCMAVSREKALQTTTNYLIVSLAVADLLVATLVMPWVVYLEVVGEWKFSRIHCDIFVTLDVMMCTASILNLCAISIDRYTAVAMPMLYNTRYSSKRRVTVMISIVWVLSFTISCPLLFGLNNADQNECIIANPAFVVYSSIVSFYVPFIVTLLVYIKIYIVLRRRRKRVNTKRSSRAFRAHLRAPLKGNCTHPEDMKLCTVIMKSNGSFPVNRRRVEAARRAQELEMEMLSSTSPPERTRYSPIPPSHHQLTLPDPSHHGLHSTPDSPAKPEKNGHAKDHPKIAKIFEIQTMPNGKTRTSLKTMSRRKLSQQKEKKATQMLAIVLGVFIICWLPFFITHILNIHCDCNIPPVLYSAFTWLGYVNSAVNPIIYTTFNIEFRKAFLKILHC
The number alone won't do; follow it with the unit.

Study these solved cases before continuing.
>>> value_reported("C/C(=C\\n1c2c(c3cc(Cl)ccc31)CCN(C)C2C)c1ccccc1F (stereo not drawn)")
"9%"
>>> value_reported("Cc1ccc2c(c1)c1c(n2C#Cc2ccc(Cl)cc2)CN(C)CC1")
"-3%"
>>> value_reported("CN1CCc2c(n(CC(=O)NC3CCCCC3)c3ccc(Cl)cc23)C1")
"-3%"
>>> value_reported("C/C(=C/n1c2c(c3cc(C)ccc31)CCN(C)C2C)c1ccc(Cl)cc1Cl (stereo not drawn)")
"5%"

**Query** What value of measured inhibition at 1 µM is listed for CCC1c2c(c3cc(C)ccc3n2C#Cc2ccc(Cl)cc2)CCN1C (stereo not drawn) ?
**Result** 4%

**Query** What value of measured inhibition at 1 µM is listed for C/C(=C\n1c2c(c3cc(C)ccc31)CCN(C)C2)c1ccc(Cl)c(Cl)c1 ?
**Result** 9%

**Query** What value of measured inhibition at 1 µM is listed for Cc1ccc2c(c1)c1c(n2CCC(=O)N2CCCCC2)CN(C)CC1 ?
**Result** -8%

**Query** What value of measured inhibition at 1 µM is listed for Cc1ccc2c(c1)c1c(n2C(=O)Cc2ccc(Cl)cc2)C(c2ccccc2)N(C)CC1 (stereo not drawn) ?
**Result** -12%

**Query** What value of measured inhibition at 1 µM is listed for CN1CCc2c(n(CC(=O)N(C)C)c3ccc(Cl)cc23)C1 ?
**Result** -7%

* * *

Target: human recombinant serotonin (5-Hydroxytryptamine) 5-HT2C receptor (Homo sapiens)
Construct: expressed in transfected cells; host or cells: CHO-K1 cells
Sequence (P28335 33-458): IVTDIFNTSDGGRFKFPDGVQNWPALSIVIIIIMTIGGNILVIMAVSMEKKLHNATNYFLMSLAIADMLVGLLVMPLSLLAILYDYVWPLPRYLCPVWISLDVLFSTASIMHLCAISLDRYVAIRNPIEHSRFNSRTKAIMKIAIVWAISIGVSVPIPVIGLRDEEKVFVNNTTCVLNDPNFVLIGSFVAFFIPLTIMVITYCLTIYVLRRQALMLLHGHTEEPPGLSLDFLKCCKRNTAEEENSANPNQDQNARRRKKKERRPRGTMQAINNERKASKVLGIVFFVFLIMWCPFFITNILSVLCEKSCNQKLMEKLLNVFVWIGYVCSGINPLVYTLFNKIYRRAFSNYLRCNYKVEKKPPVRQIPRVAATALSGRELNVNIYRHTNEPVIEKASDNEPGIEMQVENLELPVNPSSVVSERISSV
Assay: Serotonin 5-HT2C radioligand binding ([3H]Mesulergine)
Conditions: 1 h; read-out: Percent Inhibition of ligand binding Serotonin (1 μM ligand concentration) 5-HT2C
Is inhibition at 1 µM at least 90%? Then True. If not, False.

Use the examples below as a reference point.
>>> classification("CCC1c2c(c3cc(Cl)ccc3n2/C=C(\\C)c2ccc(Cl)cc2)CCN1C (stereo not drawn)")
"True"
>>> classification("C/C(=C\\n1c2c(c3cc(Cl)ccc31)CCN(C)C2C)c1ccc(Cl)c(Cl)c1 (stereo not drawn)")
"False"
>>> classification("Cc1ccc2c(c1)c1c(n2/C=C/c2ccccc2)CN(C)CC1")
"True"

**Query** Evaluate Cc1ccc2c(c1)c1c(n2CCc2ccc(C)nc2)CN(C)CC1 : inhibition at 1 µM at minimum 90%?
**Result** False

**Query** Evaluate CCC1c2c(c3cc(C)ccc3n2/C=C(\C)c2ccc(F)c(F)c2)CCN1C (stereo not drawn) : inhibition at 1 µM at minimum 90%?
**Result** True

**Query** Evaluate CCC1c2c(c3cc(Cl)ccc3n2CCc2ccc(F)cc2)CCN1C (stereo not drawn) : inhibition at 1 µM at minimum 90%?
**Result** True

* * *

biological target: human recombinant dopamine D2L receptor (Homo sapiens, UniProt P14416); construct: expressed in transfected cells; host or cells: CHO cells; experiment: Dopamine D2L radioligand binding ([3H]Spiperone); settings: 2 h, 1 μM ligand conc.; read-out: Percent Inhibition of ligand binding Dopamine (1 μM ligand conc.) D2L
Entries and their inhibition at 1 µM
Hi! Could you send only the number? It should be in %, unit omitted.

>>> value_reported("CCC1c2c(c3cc(C)ccc3n2/C=C(\\C)c2ccc(Cl)cc2Cl)CCN1C (stereo not drawn) [Compound 170]")
1
>>> value_reported("COc1ccc(C(O)Cn2c3c(c4cc(Cl)ccc42)CCN(C)C3)cc1OC (stereo not drawn) [Compound 70]")
0
>>> value_reported("CN1CCc2c(n(CC(O)c3ccccc3F)c3ccc(Cl)cc23)C1 (stereo not drawn) [Compound 59]")
35

**Query** What value of measured inhibition at 1 µM is listed for C/C(=C\n1c2c(c3cc(C)ccc31)CCN(C)C2)c1ccc(F)c(F)c1 [Compound 109] ?
**Result** 12

**Query** What value of measured inhibition at 1 µM is listed for C/C(=C/n1c2c(c3cc(C)ccc31)CCN(C)C2C)c1ccc(F)c(F)c1 (stereo not drawn) [Compound 175] ?
**Result** 0

**Query** What value of measured inhibition at 1 µM is listed for CN1CCc2c(n(CC(=O)Nc3ccc(F)cc3)c3ccc(Cl)cc23)C1 [Compound 15] ?
**Result** -5

**Query** What value of measured inhibition at 1 µM is listed for CN1CCc2c(n(CCc3ccc(F)cc3)c3ccc(Cl)cc23)C1 [Compound 3] ?
**Result** 47

**Query** What value of measured inhibition at 1 µM is listed for Cc1ccc2c(c1)c1c(n2CC(O)c2ccccc2F)CN(C)CC1 (stereo not drawn) [Compound 60] ?
**Result** 18

**Query** What value of measured inhibition at 1 µM is listed for C#CCn1c2c(c3cc(Cl)ccc31)CCN(C)C2 [Compound 125] ?
**Result** 19

* * *

target: human recombinant adrenergic α2B receptor (Homo sapiens, UniProt P18089); construct: expressed in transfected cells; host or cells: CHO-K1 cells; assay: Adrenergic α2B radioligand binding ([3H]Rauwolscine); settings: 1 h; read-out: Percent Inhibition of ligand binding Adrenergic (1 μM ligand conc.) α2B
Sequence (P18089 whole entry): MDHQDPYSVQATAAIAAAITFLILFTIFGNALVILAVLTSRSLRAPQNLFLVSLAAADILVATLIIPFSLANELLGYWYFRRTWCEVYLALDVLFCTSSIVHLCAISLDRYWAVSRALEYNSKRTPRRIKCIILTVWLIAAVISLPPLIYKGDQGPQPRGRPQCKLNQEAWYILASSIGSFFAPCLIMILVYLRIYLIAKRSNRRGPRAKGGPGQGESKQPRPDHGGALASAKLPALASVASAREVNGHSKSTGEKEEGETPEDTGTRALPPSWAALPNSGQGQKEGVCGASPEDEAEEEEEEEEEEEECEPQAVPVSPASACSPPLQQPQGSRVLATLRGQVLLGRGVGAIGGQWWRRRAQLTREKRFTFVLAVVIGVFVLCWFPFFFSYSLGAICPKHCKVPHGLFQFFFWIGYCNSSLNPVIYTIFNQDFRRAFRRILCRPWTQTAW
Metric: inhibition at 1 µM (%)
Hi! Could you send only the number? It should be in %, unit omitted.

>>> value_reported("Cc1ccc2c(c1)c1c(n2CC(O)c2ccccc2)CN(C)CC1 (centres unmarked) [Compound 67]")
106
>>> value_reported("CCC1c2c(c3cc(C)ccc3n2C(=O)Cc2ccc(F)cc2)CCN1C (centres unmarked) [Compound 159]")
78
>>> value_reported("CN1CCc2c(n(CC(=O)NC3CCCCC3)c3ccc(Cl)cc23)C1 [Compound 17]")
14

**Query** What value of measured inhibition at 1 µM is listed for CN1CCc2c(n(CC(=O)N(C)C)c3ccc(Cl)cc23)C1 [Compound 16] ?
**Result** -7

**Query** What value of measured inhibition at 1 µM is listed for COc1ccc(C(O)Cn2c3c(c4cc(C)ccc42)CCN(C)C3)cc1OC (centres unmarked) [Compound 66] ?
**Result** 74

**Query** What value of measured inhibition at 1 µM is listed for C/C(=C\n1c2c(c3cc(Cl)ccc31)CCN(C)C2C)c1ccc(Cl)cc1 (centres unmarked) [Compound 99] ?
**Result** 77

**Query** What value of measured inhibition at 1 µM is listed for CN1CCc2c(n(CC(=O)N3CCCC3)c3ccc(Cl)cc23)C1 [Compound 40] ?
**Result** 18

**Query** What value of measured inhibition at 1 µM is listed for CN1CCc2c(n(CCCc3ccccc3)c3ccc(Cl)cc23)C1 [Compound 29] ?
**Result** 79

**Query** What value of measured inhibition at 1 µM is listed for CN1CCc2c(n(CCCC(=O)N3CCCCC3)c3ccc(Cl)cc23)C1 [Compound 44] ?
**Result** 20

**Query** What value of measured inhibition at 1 µM is listed for Cc1ccc(CCCn2c3c(c4cc(Cl)ccc42)CCN(C)C3)cn1 [Compound 56] ?
**Result** -10

**Query** What value of measured inhibition at 1 µM is listed for CN1CCc2c(n(CCN3CCCCC3)c3ccc(Cl)cc23)C1 [Compound 34] ?
**Result** 38
